- MEASUREMENT PROTOCOL: qHTS assay to identify small molecule agonists or antagonists of the thyroid stimulating hormone receptor (TSHR) signaling pathway - wild type cell line counter screen (AID 1259384)
- SETTINGS: HEK293 wild type, cAMP HTRF counter-screen; series mostly up to 92.4 µM
Inconclusive results are not listed. Active and inactive are the calls of the source. Calls follow the shape of the full dose curve.
MEASUREMENT TYPE: outcome

These recorded examples may help you get a feel for the data.
O=C(O)c1cc2ccccc2cc1O | inactive
CCCCCCCCCCO | inactive
C=C(C)C(=O)OCC(C)C | inactive
CC1(C)OC[C@@H]2O[C@@]3(C(=O)O)OC(C)(C)O[C@H]3[C@@H]2O1 | inactive
CC1(C)CC(N)CC(C)(CN)C1 (centres undefined) | inactive
C=CCCCCCCCCC(=O)O | inactive
CCCCCCC=O | inactive
COc1cc(OC)c(C(=O)CCCN2CCCC2)c(OC)c1 | inactive

Give me outcome for each of these compounds, listed below.
1. CCCCCCCCCCN
2. CNC(=O)Oc1ccc2c(c1)[C@]1(C)CCN(C)[C@@H]1N2C
3. CC(=O)OCc1ccccc1

1: inactive; 2: inactive; 3: inactive
